Recorded values, source patent US20250059171A1.

Target: HCoV-229E 3CLpro (Human coronavirus 229E, UniProt P0C6X1)
Sequence (P0C6X1 2966-3267): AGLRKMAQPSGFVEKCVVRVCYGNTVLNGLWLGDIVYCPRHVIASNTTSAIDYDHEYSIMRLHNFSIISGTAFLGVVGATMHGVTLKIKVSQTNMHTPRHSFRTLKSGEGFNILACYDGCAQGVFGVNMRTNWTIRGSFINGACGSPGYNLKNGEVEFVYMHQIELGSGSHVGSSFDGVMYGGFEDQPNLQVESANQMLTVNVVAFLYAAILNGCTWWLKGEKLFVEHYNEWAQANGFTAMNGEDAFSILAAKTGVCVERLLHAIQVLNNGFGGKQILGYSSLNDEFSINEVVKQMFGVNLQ
pIC50: −log10 of the molar value.
# pIC50 >= 7 gives fulfilled, anything below gives not fulfilled

Reference set (2 entries):
Exercise: Hello, I need to know if CC(C)(C)[C@H](NC(=O)C(F)F)C(=O)N1C[C@@H]2CCC[C@@H]2[C@H]1C(=O)NN(C[C@@H]1CCNC1=O)C(=O)[C@H](F)Cl [Example 28] has measured pIC50 not below 7. Thanks!
Solution: not fulfilled

Exercise: Hello, I need to know if C[C@H](NC(=O)C(F)(F)F)C(=O)N1C[C@@H]2CCC[C@@H]2[C@H]1C(=O)NN(C[C@@H]1CCNC1=O)C(=O)[C@H](F)Cl [Example 75] has measured pIC50 not below 7. Thanks!
Solution: fulfilled

Now take the following molecule into account.
Exercise: Hello, I need to know if CC1(C)C[C@@H](C(=O)NN(C[C@@H]2CCNC2=O)C(=O)[C@H](F)Cl)N(C(=O)[C@@H](NC(=O)C(F)(F)F)C(C)(C)C)C1 [Example 8] has measured pIC50 not below 7. Thanks!
Solution: fulfilled

* * *

UniProt:P0C6X1 IC50 data
Numeric only. Scale: nM

Test item CC(C)(C)[C@H](NC(=O)C1CC(F)(F)C1)C(=O)N1C[C@H]2[C@@H]([C@H]1C(=O)NN(C[C@@H]1CCNC1=O)C(=O)[C@H](F)Cl)C2(C)C ; UniProt:P0C6X1; reported IC50 was 22

Test item CCC(C)(C)[C@H](NC(=O)C1CC1)C(=O)N1C[C@H]2[C@@H]([C@H]1C(=O)NN(C[C@@H]1CCNC1=O)C(=O)[C@@H](F)Cl)C2(C)C ; UniProt:P0C6X1; reported IC50 was 40

Pending compound:
Test item CCC(=O)N[C@H](C(=O)N1C[C@@H]2CCC[C@@H]2[C@H]1C(=O)NN(C[C@@H]1CCNC1=O)C(=O)[C@H](F)Cl)C(C)(C)C ; UniProt:P0C6X1; reported IC50 was 23

* * *

SARS-CoV 3CLpro (Severe acute respiratory syndrome coronavirus) IC50 data
Numeric only. Scale: nM

Test item CC[C@H](C)[C@H](NC(=O)C1CC(F)(F)C1)C(=O)N1C[C@@H]2CCC[C@@H]2[C@H]1C(=O)NN(C[C@@H]1CCNC1=O)C(=O)[C@H](F)Cl [Example 126] ; SARS-CoV 3CLpro (Severe acute respiratory syndrome coronavirus); reported IC50 was 11

Test item CC(C)(C)[C@H](NC(=O)C1CC1)C(=O)N1C[C@@H]2CCC[C@@H]2[C@H]1C(=O)NN(C[C@@H]1CCNC1=O)C(=O)[C@H](F)Cl [Example 31] ; SARS-CoV 3CLpro (Severe acute respiratory syndrome coronavirus); reported IC50 was 12

Test item CC(C)(C)[C@H](NC(=O)C(F)(F)F)C(=O)N1C[C@@H]2CCC[C@@H]2[C@H]1C(=O)NN(C[C@@H]1CCNC1=O)C(=O)[C@H](F)Cl [Example 4] ; SARS-CoV 3CLpro (Severe acute respiratory syndrome coronavirus); reported IC50 was 16

Test item CC[C@H](C)[C@H](NC(=O)C(C)F)C(=O)N1C[C@@H]2CCC[C@@H]2[C@H]1C(=O)NN(C[C@@H]1CCNC1=O)C(=O)[C@H](F)Cl (mixture of isomers) [Example 43] ; SARS-CoV 3CLpro (Severe acute respiratory syndrome coronavirus); reported IC50 was 11

Test item CC(C)(C)[C@H](NC(=O)[C@H]1CC1(F)F)C(=O)N1C[C@H]2[C@@H]([C@H]1C(=O)NN(C[C@@H]1CCNC1=O)C(=O)[C@@H](F)Cl)C2(C)C [Example 96] ; SARS-CoV 3CLpro (Severe acute respiratory syndrome coronavirus); reported IC50 was 14

Further cases:
Test item CCC(CC)[C@H](NC(=O)C(F)(F)F)C(=O)N1C[C@@H]2CCC[C@@H]2[C@H]1C(=O)NN(C[C@@H]1CCNC1=O)C(=O)[C@H](F)Cl [Example 77] ; SARS-CoV 3CLpro (Severe acute respiratory syndrome coronavirus); reported IC50 was 12

Test item CCC(C)(C)[C@H](NC(=O)C(F)F)C(=O)N1C[C@@H]2CCC[C@@H]2[C@H]1C(=O)NN(C[C@@H]1CCNC1=O)C(=O)[C@H](F)Cl [Example 151] ; SARS-CoV 3CLpro (Severe acute respiratory syndrome coronavirus); reported IC50 was 14

Test item CC[C@H](C)[C@H](NC(=O)C(C)(F)F)C(=O)N1C[C@H]2[C@@H]([C@H]1C(=O)NN(C[C@@H]1CCNC1=O)C(=O)[C@H](F)Cl)C2(C)C [Example 55] ; SARS-CoV 3CLpro (Severe acute respiratory syndrome coronavirus); reported IC50 was 14

Test item CC(C)(C)[C@H](NC(=O)C(F)F)C(=O)N1C[C@@H]2CCC[C@@H]2[C@H]1C(=O)NN(C[C@@H]1CCNC1=O)C(=O)[C@H](F)Cl [Example 28] ; SARS-CoV 3CLpro (Severe acute respiratory syndrome coronavirus); reported IC50 was 38

* * *

HCoV-229E 3CLpro (Human coronavirus 229E) pIC50 data
Formally, pIC50 is defined as -log10 of the concentration c, with c in mol/L.

Test item CC[C@H](C)[C@H](NC(=O)C1CC(F)(F)C1)C(=O)N1C[C@H]2[C@@H]([C@H]1C(=O)NN(C[C@@H]1CCNC1=O)C(=O)[C@H](F)Cl)C2(C)C [Example 58] ; HCoV-229E 3CLpro (Human coronavirus 229E); reported pIC50 was 7.59

Test item CC[C@@H](C)[C@H](NC(=O)C(F)(F)F)C(=O)N1C[C@@H]2CCC[C@@H]2[C@H]1C(=O)NN(C[C@@H]1CCNC1=O)C(=O)[C@H](F)Cl [Example 73] ; HCoV-229E 3CLpro (Human coronavirus 229E); reported pIC50 was 7.40

Test item CC(C)(C)[C@H](NC(=O)C(F)(F)F)C(=O)N1C[C@H]2[C@@H]([C@H]1C(=O)NN(CCC(N)=O)C(=O)[C@H](F)Cl)C2(C)C [Example 87] ; HCoV-229E 3CLpro (Human coronavirus 229E); reported pIC50 was 7.72

Test item CC[C@H](C)[C@H](NC(=O)C(F)F)C(=O)N1C[C@H]2[C@@H]([C@H]1C(=O)NN(C[C@@H]1CCCNC1=O)C(=O)[C@H](F)Cl)C2(C)C [Example 176] ; HCoV-229E 3CLpro (Human coronavirus 229E); reported pIC50 was 7.55

Test item CCC(C)(C)[C@H](NC(=O)C(F)F)C(=O)N1C[C@H]2[C@@H]([C@H]1C(=O)NN(C[C@@H]1CCNC1=O)C(=O)[C@@H](F)Cl)C2(C)C [Example 148] ; HCoV-229E 3CLpro (Human coronavirus 229E); reported pIC50 was 7.52

* * *

Biological target: SARS-CoV-2 3CLpro (Severe acute respiratory syndrome coronavirus 2)
Assay: biochemical
property: IC50 (nM)
Numeric only. Scale: nM

Notebook: CC(C)(C)[C@H](NC(=O)C(F)(F)F)C(=O)N1C[C@H]2[C@@H]([C@H]1C(=O)NN(Cc1cc[nH]n1)C(=O)[C@H](F)Cl)C2(C)C , IC50 read as 21

Notebook: CC(C)(C)[C@H](NC(=O)C(F)F)C(=O)N1C[C@H]2[C@@H]([C@H]1C(=O)NN(C[C@@H]1CCNC1=O)C(=O)[C@H](F)Cl)C2(C)C , IC50 read as 7

Notebook: CC(C)(C)[C@H](NC(=O)[C@@H]1CC1(F)F)C(=O)N1C[C@H](C(F)(F)F)C[C@H]1C(=O)NN(C[C@@H]1CCNC1=O)C(=O)[C@H](F)Cl , IC50 read as 11

Notebook: CCC(C)[C@H](NC(=O)C1(F)CCC1)C(=O)N1C[C@@H]2CCC[C@@H]2[C@H]1C(=O)NN(C[C@@H]1CCNC1=O)C(=O)[C@H](F)Cl (stereo in doubt) , IC50 read as 10

Notebook: CC[C@H](C)[C@H](NC(=O)C1(C)CC1)C(=O)N1C[C@H]2[C@@H]([C@H]1C(=O)NN(C[C@@H]1CCNC1=O)C(=O)[C@H](F)Cl)C2(C)C , IC50 read as 10

Further cases:
Notebook: CC(C)(C)[C@H](NC(=O)C1(F)CC1)C(=O)N1C[C@H]2[C@@H]([C@H]1C(=O)NN(C[C@@H]1CCNC1=O)C(=O)[C@@H](F)Cl)C2(C)C , IC50 read as 21

* * *

HCoV-229E 3CLpro (Human coronavirus 229E) IC50 data
Numeric only. Scale: µM

These recorded examples may help you get a feel for the data.
Test item CC[C@H](C)[C@H](NC(=O)C(F)(F)F)C(=O)N1C[C@H]2[C@@H]([C@H]1C(=O)NN(C[C@H]1CCCNC1=O)C(=O)[C@H](F)Cl)C2(C)C (single isomer, unassigned) [Example 165b] ; HCoV-229E 3CLpro (Human coronavirus 229E); reported IC50 was 0.057

Test item CC1([C@H](NC(=O)C(F)(F)F)C(=O)N2C[C@H]3[C@@H]([C@H]2C(=O)NN(C[C@@H]2CCNC2=O)C(=O)[C@H](F)Cl)C3(C)C)CC1 ; HCoV-229E 3CLpro (Human coronavirus 229E); reported IC50 was 0.023

Pending compound:
Test item CC(C)(C)C[C@H](NC(=O)C(F)(F)F)C(=O)N1C[C@H]2[C@@H]([C@H]1C(=O)NN(C[C@@H]1CCNC1=O)C(=O)[C@H](F)Cl)C2(C)C ; HCoV-229E 3CLpro (Human coronavirus 229E); reported IC50 was 0.035
